- Protocol details: Permeability of the compound at 100 ug/ml by PAMPA-BBB assay
- Type: ADME
- Measurement parameters: dose 100 µg/ml, read-out: permeability
Experimental readout: Papp at 100 ug/ml

CCCCCCCC1OC(=O)c2cc(N3N=C(c4cc(Cl)ccc4O)CC3=O)ccc21 (stereo unspecified) = 6.37 ×10⁻⁶ cm/s

###

- Protocol details: AUC (0 to t) in BALB/c mouse plasma at 30 mg/kg, ig
- Format: ADME, organism-based
- Measurement parameters: po
Experimental readout: AUC(0-t) (ng·h/mL)

CCCCCCCC1OC(=O)c2cc(N3N=C(c4cc(Cl)ccc4O)CC3=O)ccc21 (stereo unspecified) = 2940

###

- Protocol details: Tmax in BALB/c mouse plasma at 30 mg/kg, ig
- Format: ADME, organism-based
- Measurement parameters: po
Experimental readout: Tmax

CCCCCCCC1OC(=O)c2cc(N3N=C(c4cc(Cl)ccc4O)CC3=O)ccc21 (stereo unspecified) = 30 min

###

We begin with a simple list: items and their reported inhibition.
- Measured on: Amyloid-beta precursor protein (Homo sapiens)
- Protocol details: Inhibition of Cu2+-induced amyloid beta (1 to 42) (unknown origin) aggregation at 25 uM by ThT fluorescence assay
Experimental readout: inhibition (%)

O=C1OCc2ccc(N3N=C(c4cc(F)ccc4O)CC3=O)cc21 = 44.7
CCCCC1OC(=O)c2cc(N3N=C(c4cccc(Br)c4O)CC3=O)ccc21 (stereo not given) = 50.6
CCCCC1OC(=O)c2cc(N3N=C(c4ccc(Br)cc4O)CC3=O)ccc21 (stereo not given) = 69.4
CCCCC1OC(=O)c2cc(N3N=C(c4cc(Cl)ccc4O)CC3=O)ccc21 (stereo not given) = 58.8
CCCCCCC1OC(=O)c2cc(N3N=C(c4ccccc4O)CC3=O)ccc21 (stereo not given) = 43.8
CCCCC1OC(=O)c2cc(N3N=C(c4cc(F)ccc4O)CC3=O)ccc21 (stereo not given) = 60.3
CCCCC1OC(=O)c2cc(N3N=C(c4cc(OC)ccc4O)CC3=O)ccc21 (stereo not given) = 71
CCCCC1OC(=O)c2cc(N3N=C(c4cccc(F)c4O)CC3=O)ccc21 (stereo not given) = 75.9
CCCCCCCC1OC(=O)c2cc(N3N=C(c4cc(Cl)ccc4O)CC3=O)ccc21 (stereo not given) = 57.5
CCCCC1OC(=O)c2cc(N3N=C(c4cc(C)ccc4O)CC3=O)ccc21 (stereo not given) = 61.2

###

- Measured on: Amyloid-beta precursor protein (Homo sapiens) (UniProt P05067)
- Sequence (P05067 whole entry): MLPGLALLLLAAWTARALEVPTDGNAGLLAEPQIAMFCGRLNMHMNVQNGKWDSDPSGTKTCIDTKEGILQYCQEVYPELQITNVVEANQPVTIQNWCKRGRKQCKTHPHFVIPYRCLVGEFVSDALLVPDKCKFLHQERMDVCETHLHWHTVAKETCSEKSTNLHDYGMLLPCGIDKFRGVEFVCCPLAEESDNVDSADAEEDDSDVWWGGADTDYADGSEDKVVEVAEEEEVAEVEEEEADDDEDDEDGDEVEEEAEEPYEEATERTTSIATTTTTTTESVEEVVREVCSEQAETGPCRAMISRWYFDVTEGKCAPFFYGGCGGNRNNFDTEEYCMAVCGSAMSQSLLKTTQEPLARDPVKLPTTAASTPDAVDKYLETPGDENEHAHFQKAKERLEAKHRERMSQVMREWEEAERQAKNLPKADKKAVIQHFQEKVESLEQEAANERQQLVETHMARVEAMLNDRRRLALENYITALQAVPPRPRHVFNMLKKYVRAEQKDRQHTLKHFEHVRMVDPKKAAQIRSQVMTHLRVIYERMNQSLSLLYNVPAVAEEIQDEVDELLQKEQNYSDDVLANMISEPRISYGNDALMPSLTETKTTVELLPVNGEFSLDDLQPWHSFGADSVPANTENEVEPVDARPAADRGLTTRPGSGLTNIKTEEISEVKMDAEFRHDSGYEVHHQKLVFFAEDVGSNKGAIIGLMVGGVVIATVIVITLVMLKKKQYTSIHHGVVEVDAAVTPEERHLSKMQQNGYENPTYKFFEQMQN
- Protocol details: Inhibition of self-induced amyloid beta (1 to 42) (unknown origin) aggregation at 25 uM by ThT fluorescence assay
We begin with a simple list: items and their reported inhibition.
Experimental readout: inhibition (%)

CCCCC1OC(=O)c2cc(N3N=C(c4cc(Cl)ccc4O)CC3=O)ccc21 (stereo not given) = 85.1
CCCCC1OC(=O)c2cc(N3N=C(c4cc(Br)ccc4O)CC3=O)ccc21 (stereo not given) = 69.3
O=C1OCc2ccc(N3N=C(c4ccccc4O)CC3=O)cc21 = 33.5
O=C1OCc2ccc(N3N=C(c4cc(F)ccc4O)CC3=O)cc21 = 46.1
CCCCCCC1OC(=O)c2cc(N3N=C(c4cc(F)ccc4O)CC3=O)ccc21 (stereo not given) = 44.6
CCCCC1OC(=O)c2cc(N3N=C(c4ccc(N(C)C)cc4O)CC3=O)ccc21 (stereo not given) = 24.9
CCCCCCCC1OC(=O)c2cc(N3N=C(c4cc(Cl)ccc4O)CC3=O)ccc21 (stereo not given) = 56
CCCCC1OC(=O)c2cc(N3N=C(c4cc(N(C)C)ccc4O)CC3=O)ccc21 (stereo not given) = 60.6
O=C1OCc2ccc(N3N=C(c4cccc(F)c4O)CC3=O)cc21 = 21.3
CCCCC1OC(=O)c2cc(N3N=C(c4cc(Cl)cc(Br)c4O)CC3=O)ccc21 (stereo not given) = 65.2
CCCCCCCC1OC(=O)c2cc(N3N=C(c4ccccc4O)CC3=O)ccc21 (stereo not given) = 57.8
CCCCCCC1OC(=O)c2cc(N3N=C(c4cc(Cl)ccc4O)CC3=O)ccc21 (stereo not given) = 54.6
CCCCCCCC1OC(=O)c2cc(N3N=C(c4cc(OC)ccc4O)CC3=O)ccc21 (stereo not given) = 45.4
CCCCC1OC(=O)c2cc(N3N=C(c4cc(C)ccc4O)CC3=O)ccc21 (stereo not given) = 54.4
CCCCC1OC(=O)c2cc(N3N=C(c4cc(Cl)cc(Cl)c4O)CC3=O)ccc21 (stereo not given) = 55.1
CCCCC1OC(=O)c2cc(N3N=C(c4ccc(Cl)cc4O)CC3=O)ccc21 (stereo not given) = 68
CCCCC1OC(=O)c2cc(N3N=C(c4cccc(Br)c4O)CC3=O)ccc21 (stereo not given) = 75.5
CCCCC1OC(=O)c2cc(N3N=C(c4cccc(F)c4O)CC3=O)ccc21 (stereo not given) = 67
CCCCCCC1OC(=O)c2cc(N3N=C(c4ccccc4O)CC3=O)ccc21 (stereo not given) = 50.3
CCCCC1OC(=O)c2cc(N3N=C(c4ccc(Br)cc4O)CC3=O)ccc21 (stereo not given) = 65.6
CCCCC1OC(=O)c2cc(N3N=C(c4cc(OC)ccc4O)CC3=O)ccc21 (stereo not given) = 78
CCCCC1OC(=O)c2cc(-n3nc(-c4ccccc4O)cc3C)ccc21 (stereo not given) = 19.3
CCCCC1OC(=O)c2cc(N3N=C(c4cc([N+](=O)[O-])ccc4O)CC3=O)ccc21 (stereo not given) = 68.8
CCCCC1OC(=O)c2cc(N3N=C(c4ccccc4O)CC3=O)ccc21 (stereo not given) = 70.9
CCCCC1OC(=O)c2cc(N3N=C(c4cc(F)ccc4O)CC3=O)ccc21 (stereo not given) = 66.6
